- tested_on: ZFP SBS#710 (synthetic)
- Sequence (chain, as listed by the source): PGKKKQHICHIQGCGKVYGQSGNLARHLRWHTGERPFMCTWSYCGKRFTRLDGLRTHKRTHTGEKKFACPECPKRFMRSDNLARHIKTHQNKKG
- assay_explanation: EMSA
- particulars: tags: MBP fusion
pKd: −log10 of the molar value.
measurement_kind: pKd

binder | measurement_kind | assay_value
GAGTCGGAA (dsDNA) DNA 1: GAGTCGGAA DNA 2: TTCCGACTC | pKd | 6.40
